Attribution: patent US12559464B2

Recorded Porcine Ventricle EC25 (Y75 value) values for a group of compounds are listed next.
Biological target: myosin ATPase, Porcine Ventricle myofibrils (Sus scrofa, UniProt P79293)
Construct: Myofibrils from porcine cardiac muscle was isolated from the left ventricle of Yucatan minipigs; tissue Exemplar Genetics; host or cells: left ventricle of Yucatan minipigs, myofibrils
Sequence (P79293 whole entry): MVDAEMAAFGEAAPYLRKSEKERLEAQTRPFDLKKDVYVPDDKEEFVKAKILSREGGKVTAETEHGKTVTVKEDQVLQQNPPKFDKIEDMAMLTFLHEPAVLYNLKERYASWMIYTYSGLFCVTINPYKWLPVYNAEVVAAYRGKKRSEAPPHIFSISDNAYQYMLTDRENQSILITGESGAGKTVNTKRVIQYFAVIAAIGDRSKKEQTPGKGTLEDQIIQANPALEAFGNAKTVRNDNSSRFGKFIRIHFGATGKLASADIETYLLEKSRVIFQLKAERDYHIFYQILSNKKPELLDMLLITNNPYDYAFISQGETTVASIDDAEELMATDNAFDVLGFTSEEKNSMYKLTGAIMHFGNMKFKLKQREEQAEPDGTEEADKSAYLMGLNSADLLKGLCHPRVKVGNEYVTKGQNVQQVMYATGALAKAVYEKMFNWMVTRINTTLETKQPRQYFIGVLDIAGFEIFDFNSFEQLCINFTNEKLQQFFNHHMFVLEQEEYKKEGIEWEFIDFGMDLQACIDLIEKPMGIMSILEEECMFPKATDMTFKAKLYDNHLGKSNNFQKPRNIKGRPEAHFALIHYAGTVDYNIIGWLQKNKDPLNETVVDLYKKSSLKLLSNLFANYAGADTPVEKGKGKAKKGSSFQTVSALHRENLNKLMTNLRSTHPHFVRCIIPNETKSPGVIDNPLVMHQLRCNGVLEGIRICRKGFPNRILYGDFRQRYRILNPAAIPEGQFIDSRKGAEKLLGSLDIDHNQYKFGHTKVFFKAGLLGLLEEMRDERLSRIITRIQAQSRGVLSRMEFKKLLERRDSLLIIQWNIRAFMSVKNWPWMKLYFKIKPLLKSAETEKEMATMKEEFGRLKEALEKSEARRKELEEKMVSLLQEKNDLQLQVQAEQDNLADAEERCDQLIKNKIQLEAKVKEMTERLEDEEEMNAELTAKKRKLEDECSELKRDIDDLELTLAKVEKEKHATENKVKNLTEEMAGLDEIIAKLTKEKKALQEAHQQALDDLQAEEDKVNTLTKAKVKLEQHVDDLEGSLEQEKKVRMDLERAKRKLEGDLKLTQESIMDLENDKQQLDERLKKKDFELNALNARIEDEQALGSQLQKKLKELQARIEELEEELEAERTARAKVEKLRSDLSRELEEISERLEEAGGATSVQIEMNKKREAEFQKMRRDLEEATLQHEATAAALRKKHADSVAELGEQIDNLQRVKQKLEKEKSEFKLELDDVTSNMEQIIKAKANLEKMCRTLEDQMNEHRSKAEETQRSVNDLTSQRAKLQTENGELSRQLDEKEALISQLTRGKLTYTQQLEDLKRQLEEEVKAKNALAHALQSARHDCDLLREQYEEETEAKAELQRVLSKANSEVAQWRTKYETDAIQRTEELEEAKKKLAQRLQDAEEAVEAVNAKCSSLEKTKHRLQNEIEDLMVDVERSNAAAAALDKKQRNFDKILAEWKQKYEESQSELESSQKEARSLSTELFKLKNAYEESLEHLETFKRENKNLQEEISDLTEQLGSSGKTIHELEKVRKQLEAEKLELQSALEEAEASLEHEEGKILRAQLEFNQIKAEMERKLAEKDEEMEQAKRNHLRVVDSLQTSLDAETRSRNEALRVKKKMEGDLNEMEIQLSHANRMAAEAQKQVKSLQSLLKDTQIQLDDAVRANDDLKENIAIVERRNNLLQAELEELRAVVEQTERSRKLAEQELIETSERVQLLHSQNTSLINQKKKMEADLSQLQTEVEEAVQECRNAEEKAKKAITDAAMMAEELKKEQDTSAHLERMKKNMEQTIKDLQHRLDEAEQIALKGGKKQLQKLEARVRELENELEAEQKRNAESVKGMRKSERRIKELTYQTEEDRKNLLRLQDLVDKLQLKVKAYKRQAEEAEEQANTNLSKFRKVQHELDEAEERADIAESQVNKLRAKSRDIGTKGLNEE
Test: Myofibril ATPase assay, porcine ventricle myofibrils
Type: biochemical, porcine (Yucatan minipigs)
Settings: concentration required to reduce myosin ATP-ase activity by 25%; Porcine Ventricle Prep pCa 25 GEOM_MEAN
Just the number in µM, nothing appended.

Completed entries (count: 3):
[[record]]
compound = "C[C@H](NC(=O)Cn1c(=O)[nH]c2ccccc2c1=O)c1ccc(O)nc1 (single isomer, unassigned)"
endpoint_label = "Porcine Ventricle EC25 (Y75 value)"
readout_value = 100

[[record]]
compound = "O=C(Cn1c(=O)[nH]c2ccccc2c1=O)NC(c1ccc(Cl)cc1)c1cccs1 (stereo not drawn)"
endpoint_label = "Porcine Ventricle EC25 (Y75 value)"
readout_value = 100

[[record]]
compound = "C[C@H](NC(=O)[C@H](C)n1c(=O)[nH]c2cccc(O)c2c1=O)c1ccc(F)cc1F (single isomer, unassigned)"
endpoint_label = "Porcine Ventricle EC25 (Y75 value)"
readout_value = 1.64


Query CC(NC(=O)Cn1c(=O)[nH]c2ccccc2c1=O)C1CCCC1 (stereo not drawn) on myosin ATPase, Porcine Ventricle myofibrils (Sus scrofa, UniProt P79293); Porcine Ventricle EC25 (Y75 value) returned: 100

Query CC(C)C[C@H](C(=O)N[C@@H](C)c1ncc(F)cc1F)n1c(=O)[nH]c2ccccc2c1=O (single isomer, unassigned) on myosin ATPase, Porcine Ventricle myofibrils (Sus scrofa, UniProt P79293); Porcine Ventricle EC25 (Y75 value) returned: 100
